Experiment: Solubility in 1 M HCl
Type: physicochemical
Conditions: read-out: S
MEASURED METRIC: solubility (µg/mL)
Provide the reading as a plain figure in µg/mL.

Supply measured solubility of CC1CC(=O)NN=C1c1ccc2c(c1)Oc1cn[nH]c1N2 (stereo unspecified) in your reply.
300
